- Tested on: human HCC cell line HepG2
- procedureText: cells
- Assay type: cell-based
- conditionContext: human, 72 h
# note: boundary value 20 µg/mL maps to criterion not met; Safe doses (100% viability of HepG2) LD0 below it maps to criterion met

Consider the following illustrative entries.
molecule: COc1ccc(N2C(=O)C(=Cc3cn(-c4ccccc4)nc3-c3ccccc3)SC2=NN=C(C)c2cc3ccccc3o2)cc1 [Compound 5g]
labelValue: criterion not met

molecule: CC(=NN=C1SC(=Cc2cn(-c3ccccc3)nc2-c2ccc(Cl)cc2)C(=O)N1c1ccccc1)c1cc2ccccc2o1 [Compound 5b]
labelValue: criterion not met

molecule: CC(=NN=C1SC(=C2C(=O)Nc3ccccc32)C(=O)N1c1ccc(Cl)cc1)c1cc2ccccc2o1 [Compound 6b]
labelValue: criterion met

molecule: COc1ccc(N2C(=O)C(=C3C(=O)Nc4ccccc43)SC2=NN=C(C)c2nc3ccccc3[nH]2)cc1 [Compound 6g]
labelValue: criterion met

molecule: COc1ccc(-c2nn(-c3ccccc3)cc2C=C2SC(=NN=C(C)c3cc4ccccc4o3)N(c3ccc(Cl)cc3)C2=O)cc1 [Compound 5f]
labelValue: criterion met

Incoming: State whether 20 µg/mL exceeds Safe doses (100% viability of HepG2) LD0 recorded for COc1ccc(-c2nn(-c3ccccc3)cc2C=C2SC(=NN=C(C)c3nc4ccccc4[nH]3)N(c3ccc(Cl)cc3)C2=O)cc1 [Compound 5r] .
Outgoing: criterion met

Incoming: State whether 20 µg/mL exceeds Safe doses (100% viability of HepG2) LD0 recorded for CC(=NN=C1SC(=Cc2cn(-c3ccccc3)nc2-c2ccc(Cl)cc2)C(=O)N1C1CCCCC1)c1nc2ccccc2[nH]1 [Compound 5w] .
Outgoing: criterion not met

====

- System: human peripheral blood mononuclear cells (PBMCs)
- Type: cell-based
- conditionContext: 72 h
Note to self: values exactly at 10 µg/mL are yes (1). So LD0 at or above 10 µg/mL is yes (1), below is no (0).

Consider the following illustrative entries.
chemicalString: CC(=NN=C1SC(=Cc2cn(-c3ccccc3)nc2-c2ccc(Cl)cc2)C(=O)N1c1ccc(Cl)cc1)c1cc2ccccc2o1
assaySystem: human peripheral blood mononuclear cells (PBMCs)
labelValue: no (0)
//
chemicalString: COc1ccc(-c2nn(-c3ccccc3)cc2C=C2SC(=NN=C(C)c3cc4ccccc4o3)N(c3ccccc3)C2=O)cc1
assaySystem: human peripheral blood mononuclear cells (PBMCs)
labelValue: yes (1)
//
chemicalString: CC(=NN=C1SC(=C2C(=O)Nc3ccccc32)C(=O)N1C1CCCCC1)c1cc2ccccc2o1
assaySystem: human peripheral blood mononuclear cells (PBMCs)
labelValue: no (0)

Incoming: // inclusive: LD0 at least 10 µg/mL? input: CC(=NN=C1SC(=Cc2cn(-c3ccccc3)nc2-c2ccccc2)C(=O)N1c1ccc(Cl)cc1)c1nc2ccccc2[nH]1
Outgoing: yes (1)

Incoming: // inclusive: LD0 at least 10 µg/mL? input: CC(=NN=C1SC(=C2C(=O)Nc3ccccc32)C(=O)N1c1ccccc1)c1nc2ccccc2[nH]1
Outgoing: yes (1)

Incoming: // inclusive: LD0 at least 10 µg/mL? input: COc1ccc(-c2nn(-c3ccccc3)cc2C=C2SC(=NN=C(C)c3nc4ccccc4[nH]3)N(c3ccc(Cl)cc3)C2=O)cc1
Outgoing: no (0)

Incoming: // inclusive: LD0 at least 10 µg/mL? input: CC(=NN=C1SC(=Cc2cn(-c3ccccc3)nc2-c2ccc(Cl)cc2)C(=O)N1C1CCCCC1)c1nc2ccccc2[nH]1
Outgoing: yes (1)

Incoming: // inclusive: LD0 at least 10 µg/mL? input: COc1ccc(N2C(=O)C(=C3C(=O)Nc4ccccc43)SC2=NN=C(C)c2nc3ccccc3[nH]2)cc1
Outgoing: yes (1)

====

- Test system: human HCC cell line HepG2
- procedureText: cells
- Format: cell-based
- conditionContext: LD50 on PBMC / IC50 on HepG2
Please go through the items and note down their Selectivity index.
Give bare numbers.

Record excerpt, results attached:
compound: COc1ccc(-c2nn(-c3ccccc3)cc2C=C2SC(=NN=C(C)c3cc4ccccc4o3)N(C3CCCCC3)C2=O)cc1 [Compound 5l]
Selectivity index: 0.57

compound: COc1ccc(N2C(=O)C(=C3C(=O)Nc4ccccc43)SC2=NN=C(C)c2cc3ccccc3o2)cc1 [Compound 6c]
Selectivity index: 0.37

compound: CC(=NN=C1SC(=Cc2cn(-c3ccccc3)nc2-c2ccccc2)C(=O)N1c1ccc(Cl)cc1)c1nc2ccccc2[nH]1 [Compound 5p]
Selectivity index: 2.58

Incoming: For human HCC cell line HepG2, give the measured Selectivity index of the entry CC(=NN=C1SC(=Cc2cn(-c3ccccc3)nc2-c2ccccc2)C(=O)N1C1CCCCC1)c1cc2ccccc2o1 [Compound 5j]
Outgoing: 2.10

====

Please go through the items and note down their hemolysis at 30 min, 12.5 µg/ml.
- procedureText: In vitro hemolytic assay
- Assay type: cell-based
- conditionContext: 2% erythrocyte suspension (washed red blood cells); 2% erythrocyte suspension, 3 μl of 1 mg/ml compound in DMF per 240 μl well, 37°C 30 min, absorbance 405 nm; <5% considered nontoxic
One number for each entry, in %.

molecule: CC(=NN=C1SC(=Cc2cn(-c3ccccc3)nc2-c2ccccc2)C(=O)N1C1CCCCC1)c1cc2ccccc2o1 [Compound 5j]
unitInfo: %
hemolysis at 30 min, 12.5 µg/ml: 3.01

molecule: CC(=NN=C1SC(=C2C(=O)Nc3ccccc32)C(=O)N1C1CCCCC1)c1cc2ccccc2o1 [Compound 6d]
unitInfo: %
hemolysis at 30 min, 12.5 µg/ml: 1.31

molecule: CC(=NN=C1SC(=Cc2cn(-c3ccccc3)nc2-c2ccc(Cl)cc2)C(=O)N1C1CCCCC1)c1cc2ccccc2o1 [Compound 5k]
unitInfo: %
hemolysis at 30 min, 12.5 µg/ml: 4.44

Value sought for every listed molecule: hemolysis at 30 min, 12.5 µg/ml.
1. CC(=NN=C1SC(=Cc2cn(-c3ccccc3)nc2-c2ccc(Cl)cc2)C(=O)N1c1ccccc1)c1cc2ccccc2o1 [Compound 5b]
2. COc1ccc(-c2nn(-c3ccccc3)cc2C=C2SC(=NN=C(C)c3cc4ccccc4o3)N(c3ccccc3)C2=O)cc1 [Compound 5c]
3. CC(=NN=C1SC(=C2C(=O)Nc3ccccc32)C(=O)N1c1ccccc1)c1cc2ccccc2o1 [Compound 6a]
4. COc1ccc(N2C(=O)C(=C3C(=O)Nc4ccccc43)SC2=NN=C(C)c2cc3ccccc3o2)cc1 [Compound 6c]
5. CC(=NN=C1SC(=C2C(=O)Nc3ccccc32)C(=O)N1C1CCCCC1)c1nc2ccccc2[nH]1 [Compound 6h]
6. CC(=NN=C1SC(=C2C(=O)Nc3ccccc32)C(=O)N1c1ccc(Cl)cc1)c1cc2ccccc2o1 [Compound 6b]

Outgoing:
4.22
1.65
11.2
4.02
7.56
3.08

Value sought for every listed molecule: hemolysis at 30 min, 12.5 µg/ml.
1. COc1ccc(-c2nn(-c3ccccc3)cc2C=C2SC(=NN=C(C)c3nc4ccccc4[nH]3)N(c3ccccc3)C2=O)cc1 [Compound 5o]
2. COc1ccc(-c2nn(-c3ccccc3)cc2C=C2SC(=NN=C(C)c3cc4ccccc4o3)N(C3CCCCC3)C2=O)cc1 [Compound 5l]
3. COc1ccc(-c2nn(-c3ccccc3)cc2C=C2SC(=NN=C(C)c3nc4ccccc4[nH]3)N(c3ccc(Cl)cc3)C2=O)cc1 [Compound 5r]

Outgoing:
[15.1, 2.89, 1.87]

Value sought for every listed molecule: hemolysis at 30 min, 12.5 µg/ml.
1. CC(=NN=C1SC(=Cc2cn(-c3ccccc3)nc2-c2ccccc2)C(=O)N1c1ccc(Cl)cc1)c1cc2ccccc2o1 [Compound 5d]
2. CC(=NN=C1SC(=C2C(=O)Nc3ccccc32)C(=O)N1c1ccc(Cl)cc1)c1nc2ccccc2[nH]1 [Compound 6f]

Outgoing:
1. 1.05
2. 1.01

====

- procedureText: In vitro hemolytic assay
- Type: cell-based
- conditionContext: 2% erythrocyte suspension (washed red blood cells); 2% erythrocyte suspension, 3 μl of 1 mg/ml compound in DMF per 240 μl well, 37°C 30 min, absorbance 405 nm; <5% considered nontoxic
- Protocol: Compounds 5a-x and 6a-h were subjected to the in vitro hemolytic assay to identify those which cause hemolysis to red blood cells (RBCs). Consequently, these compounds would be toxic in vivo so they were excluded from further biological screening. […] A fraction of the supernatant layer (150 μl) of each well was transferred to another 96-well microtiter plate. […] The average value was calculated from triplicate assay: [drawing 2]
Please go through the items and note down their hemolysis at 30 min, 12.5 µg/ml.
Give bare numbers, in %.

Record excerpt, results attached:
chemicalString: CC(=NN=C1SC(=Cc2cn(-c3ccccc3)nc2-c2ccc(Cl)cc2)C(=O)N1c1ccc(Cl)cc1)c1cc2ccccc2o1
hemolysis at 30 min, 12.5 µg/ml / %: 3.82
//
chemicalString: CC(=NN=C1SC(=Cc2cn(-c3ccccc3)nc2-c2ccc(Cl)cc2)C(=O)N1C1CCCCC1)c1nc2ccccc2[nH]1
hemolysis at 30 min, 12.5 µg/ml / %: 3.53
//
chemicalString: CC(=NN=C1SC(=Cc2cn(-c3ccccc3)nc2-c2ccccc2)C(=O)N1c1ccccc1)c1nc2ccccc2[nH]1
hemolysis at 30 min, 12.5 µg/ml / %: 11.7

Value sought for every listed compound: hemolysis at 30 min, 12.5 µg/ml.
1. COc1ccc(N2C(=O)C(=Cc3cn(-c4ccccc4)nc3-c3ccccc3)SC2=NN=C(C)c2cc3ccccc3o2)cc1
2. CC(=NN=C1SC(=Cc2cn(-c3ccccc3)nc2-c2ccc(Cl)cc2)C(=O)N1c1ccc(Cl)cc1)c1nc2ccccc2[nH]1
3. COc1ccc(-c2nn(-c3ccccc3)cc2C=C2SC(=NN=C(C)c3cc4ccccc4o3)N(c3ccc(Cl)cc3)C2=O)cc1
4. CC(=NN=C1SC(=Cc2cn(-c3ccccc3)nc2-c2ccc(Cl)cc2)C(=O)N1c1ccccc1)c1nc2ccccc2[nH]1

Outgoing:
[2.03, 3.49, 4.59, 9.52]

Value sought for every listed compound: hemolysis at 30 min, 12.5 µg/ml.
1. CC(=NN=C1SC(=C2C(=O)Nc3ccccc32)C(=O)N1c1ccccc1)c1nc2ccccc2[nH]1
2. COc1ccc(-c2nn(-c3ccccc3)cc2C=C2SC(=NN=C(C)c3nc4ccccc4[nH]3)N(C3CCCCC3)C2=O)cc1
3. CC(=NN=C1SC(=Cc2cn(-c3ccccc3)nc2-c2ccccc2)C(=O)N1c1ccc(Cl)cc1)c1nc2ccccc2[nH]1
4. COc1ccc(N2C(=O)C(=C3C(=O)Nc4ccccc43)SC2=NN=C(C)c2nc3ccccc3[nH]2)cc1
5. CC(=NN=C1SC(=Cc2cn(-c3ccccc3)nc2-c2ccccc2)C(=O)N1c1ccccc1)c1cc2ccccc2o1
6. COc1ccc(-c2nn(-c3ccccc3)cc2C=C2SC(=NN=C(C)c3cc4ccccc4o3)N(c3ccc(OC)cc3)C2=O)cc1

Outgoing:
[4.51, 8.74, 4.62, 2.65, 3.27, 2.97]

Incoming: Return value of hemolysis at 30 min, 12.5 µg/ml for input CC(=NN=C1SC(=Cc2cn(-c3ccccc3)nc2-c2ccccc2)C(=O)N1C1CCCCC1)c1nc2ccccc2[nH]1 , no commentary.
Outgoing: 3.66
